- assay_name: NCI Yeast Anticancer Drug Screen. Data for the rad50 strain (AID 155);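 note: 0% = growth of vehicle-only cultures of the same strain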
- condition: S. cerevisiae rad50 strain growth inhibition; at 11.0 µM; stronger effect = higher value
Compounds without any hit were thinned out: in the full panel of roughly 79,000, 15% have a hit.

>  <molecule>
O=C(N=Nc1cc(Cl)ccc1Cl)NNc1cc(Cl)ccc1Cl

>  <unit_spec>
%

>  <growth inhibition>
-23

$$$$
>  <molecule>
Cc1c(Cl)ccc2c1S(=O)(=O)c1cccc(Cl)c1-2

>  <unit_spec>
%

>  <growth inhibition>
-30

$$$$
>  <molecule>
O=[N+]([O-])c1cc2no[n+]([O-])c2cc1N1CCCCC1

>  <unit_spec>
%

>  <growth inhibition>
93

$$$$
>  <molecule>
Cc1cccc2c(C(O)CBr)cc(-c3ccc(Cl)cc3)nc12 (stereo not drawn)

>  <unit_spec>
%

>  <growth inhibition>
98

$$$$
>  <molecule>
CCC/C(Cl)=N\OC(=O)Nc1cccc(C(F)(F)F)c1

>  <unit_spec>
%

>  <growth inhibition>
13

$$$$
>  <molecule>
NC(=NCc1ccccc1)N/N=C\c1ccnc2ccccc12

>  <unit_spec>
%

>  <growth inhibition>
4

$$$$
>  <molecule>
N#CC(C(=O)Nc1ccccc1)C1=C(Cl)C(=O)c2ccccc2C1=O (stereo not drawn)

>  <unit_spec>
%

>  <growth inhibition>
97

$$$$
>  <molecule>
CC(Br)C(=O)c1ccc2cc(Br)c3ccccc3c2c1 (stereo not drawn)

>  <unit_spec>
%

>  <growth inhibition>
10

$$$$
>  <molecule>
O=[N+]([O-])c1ccc(=S)[nH]c1

>  <unit_spec>
%

>  <growth inhibition>
-5

$$$$
>  <molecule>
O=C(c1cc(Br)ccc1O)c1cc(Br)ccc1O

>  <unit_spec>
%

>  <growth inhibition>
99

$$$$
>  <molecule>
Cn1c2ccccc2c(=O)c2cc(NC(=O)CCCCC(=O)Nc3ccc4c(c3)c(=O)c3ccccc3n4C)ccc21

>  <unit_spec>
%

>  <growth inhibition>
41

$$$$
>  <molecule>
CC[C@@]1(O)C(=O)OCc2c1cc1n(c2=O)Cc2cc3c(N)cccc3nc2-1

>  <unit_spec>
%

>  <growth inhibition>
88

$$$$
>  <molecule>
[O-][n+]1c2ccc(O)cc2nc2ccc(Cl)cc21

>  <unit_spec>
%

>  <growth inhibition>
51

$$$$
>  <molecule>
CCCN(CCC)CC(O)c1cc(-c2ccc(Cl)cc2)nc2c(C)c(Cl)ccc12 (stereo not drawn)

>  <unit_spec>
%

>  <growth inhibition>
98

$$$$
>  <molecule>
[N-]=N[N+]#I1OC(C(F)(F)F)(C(F)(F)F)c2ccccc21

>  <unit_spec>
%

>  <growth inhibition>
97

$$$$
>  <molecule>
O=C(O)C1CCCCC1c1c2ccc(=O)c(O)c-2oc2c(O)c(O)ccc12 (stereo not drawn)

>  <unit_spec>
%

>  <growth inhibition>
-16

$$$$
>  <molecule>
CCCCOC(=O)N[C@H]1CCc2cc(OC)c(OC)c(OC)c2-c2ccc(SC)c(=O)cc21

>  <unit_spec>
%

>  <growth inhibition>
14

$$$$
>  <molecule>
CCN(CC)C(C)(C)C(=O)/C=C/c1ccccc1

>  <unit_spec>
%

>  <growth inhibition>
0

$$$$
>  <molecule>
CN(N=O)N1C(=O)SCC(c2ccccc2)(c2ccccc2)C1=O

>  <unit_spec>
%

>  <growth inhibition>
13

$$$$
>  <molecule>
O=C1c2ccccc2-c2nc3ccccc3nc21

>  <unit_spec>
%

>  <growth inhibition>
0

$$$$
>  <molecule>
C=C1CC(Cn2cc(Br)c(=O)[nH]c2=O)(c2ccc(-c3ccccc3)cc2)OC1=O (stereo not drawn)

>  <unit_spec>
%

>  <growth inhibition>
17

$$$$
>  <molecule>
Cc1ccc(N)c(S)c1

>  <unit_spec>
%

>  <growth inhibition>
-4

$$$$
>  <molecule>
COc1cc(C2SCC(=O)N2c2ccc(-c3ccc(-n4c(-c5ccccc5)nc5ccccc5c4=O)cc3)cc2)cc(OC)c1OC (stereo not drawn)

>  <unit_spec>
%

>  <growth inhibition>
1

$$$$
